Tested on: LG0703-F498-PDC complex spheroid growth
Test description: Anticancer human tumor LG0703-F498-PDC patient-derived lung adenocarcinoma cell line growth inhibition [AhR]; active means viability on the fitted dose curve at most 10% of control; inactive means the rest
Measurement parameters: second compound 10 µM; first compound 3.16 µM
Can you answer with just one of these options? TRUE for active, FALSE for inactive

Recorded call for Nc1ccccc1NC(=O)c1ccc(CNC(=O)OCc2cccnc2)cc1 + Cc1cncc(-c2nc(NCCc3c[nH]c4ccccc34)c3ncn(C(C)C)c3n2)c1 ?
TRUE

Answer briefly: the call reported for O=C(C=Cc1cccc(S(=O)(=O)Nc2ccccc2)c1)NO + Cc1cncc(-c2nc(NCCc3c[nH]c4ccccc34)c3ncn(C(C)C)c3n2)c1 in this assay.
TRUE

Dear colleague, could you share the recorded outcome for CC1COCCN1c1cc(C2(S(C)(=N)=O)CC2)nc(-c2ccnc3[nH]ccc23)n1 (stereo not drawn) + Cc1ccccc1N=Nc1ccc(NC(=O)c2ccnn2C)c(C)c1 when you have a moment?
FALSE

====

System: LG0703-F498-PDC complex spheroid growth
Test description: Anticancer human tumor LG0703-F498-PDC cell line growth inhibition [AhR];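 further: luminescence taken as a proxy for viable cell amount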
Measurement parameters: curve of first compound; second compound 0.316 µM
Endpoint name: IC50 (nM)
Dear colleague, please return just the value in nM, with no unit written.

Look at this compound and give its reported IC50. CC1COCCN1c1cc(-c2ccnn2C)c2ccnc(-c3ccn[nH]3)c2n1 (stereo unspecified) + CC(CO)NC(=O)c1cc(-c2ccc(Cl)cc2)nn(-c2cnn(C)c2)c1=O
465

Value lookup for IC50; key = O=C(C=Cn1cnc(-c2cc(C(F)(F)F)cc(C(F)(F)F)c2)n1)NNc1cnccn1 + CC(CO)NC(=O)c1cc(-c2ccc(Cl)cc2)nn(-c2cnn(C)c2)c1=O
45.6

What does the record list as IC50 for CC(C)CC(NC(=O)C(Cc1ccccc1)NC(=O)c1cnccn1)B(O)O (stereo unspecified) + CC(CO)NC(=O)c1cc(-c2ccc(Cl)cc2)nn(-c2cnn(C)c2)c1=O ?
2.52

====

Can you tell me pIC50 for the items I'm about to list?
System: LG0703-F498-PDC complex spheroid growth
Test description: Anticancer human tumor LG0703-F498-PDC cell line growth inhibition [AhR];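 further: luminescence taken as a proxy for viable cell amount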
Measurement parameters: curve of first compound; second compound 3.16 µM
Keep in mind that pIC50 stands for -log10 of concentration in molar terms.

Find the recorded pIC50 belonging to CC1(C)CCC(CN2CCN(c3ccc(C(=O)NS(=O)(=O)c4ccc(NCC5CCOCC5)c([N+](=O)[O-])c4)c(Oc4cnc5[nH]ccc5c4)c3)CC2)=C(c2ccc(Cl)cc2)C1 + Cc1ccccc1N=Nc1ccc(NC(=O)c2ccnn2C)c(C)c1 and report it.
5.24

Item COc1ccc([C@@H](O)c2cc(-c3ncnc4cc(N5CCOCC5)ccc34)c(F)cc2Cl)nn1 + CC(CO)NC(=O)c1cc(-c2ccc(Cl)cc2)nn(-c2cnn(C)c2)c1=O has what recorded pIC50?
5.50

GET /values?readout=pIC50&item= COc1cccc2c1C(=O)c1c(O)c3c(c(O)c1C2=O)CC(O)(C(=O)CO)CC3OC1CC(N)C(O)C(C)O1 (stereo not given) + Cc1ccccc1N=Nc1ccc(NC(=O)c2ccnn2C)c(C)c1
6.24

====

System: LG0703-F498-PDC complex spheroid growth
Test description: Anticancer human tumor LG0703-F498-PDC cell line growth inhibition [AhR];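 further: luminescence taken as a proxy for viable cell amount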;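 on viability, T/C: percent of DMSO vehicle control where 100% means growth equal to vehicle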
Measurement parameters: second compound 3.16 µM; first compound 0.00316 µM; stronger effect = lower value
Task for the reader: assign each of the following molecules its reported viability, T/C.

Bench note: what viability, T/C did CC1COCCN1c1cc(-c2ccnn2C)c2ccnc(-c3ccn[nH]3)c2n1 (stereo not drawn) + CC(CO)NC(=O)c1cc(-c2ccc(Cl)cc2)nn(-c2cnn(C)c2)c1=O show?
87.5%

Sample Cn1ncnc1C1c2n[nH]c(=O)c3cc(F)cc(c23)NC1c1ccc(F)cc1 (stereo not drawn) + Cc1cncc(-c2nc(NCCc3c[nH]c4ccccc34)c3ncn(C(C)C)c3n2)c1 — what was its viability, T/C?
58.2%

Quick check: viability, T/C of Nc1ncn(C2CC(O)C(CO)O2)c(=O)n1 (stereo not drawn) + CC(CO)NC(=O)c1cc(-c2ccc(Cl)cc2)nn(-c2cnn(C)c2)c1=O ?
78.7%
